Tested on: A549 NSCLC
measurement protocol: NCI tumour cell line growth inhibition, 48 h
Entries and their TGI values follow.

# count of solved cases: 3
1. N[C@@H](CCC(=O)NC(Cc1ccccc1)C(=O)NCP(=O)(O)O)C(=O)O (some centres undefined): > 100 µM
2. COC1=CC(c2ccc[nH]2)=N/C1=C\c1[nH]c(C)c(C(=O)CCCCCCCCC(=O)O[C@H]2CC[C@H]3C4CCc5cc(O)ccc5C4CC[C@]23C)c1C (some centres undefined): 8.88 µM
3. Cn1c(COC(=O)NCCn2ccnc2)nc2c(N3CCOCC3)nc(-c3ccccc3)nc21: 3.38 µM

Incoming: Return reported TGI. Input molecule: Cc1ccc(C2=CC(=O)c3ccccc3C2=O)n1-c1ccccc1
Outgoing: > 100 µM

----------
Entries and their TGI values follow.
Test system: SF-295 CNS
measurement protocol: NCI tumour cell line growth inhibition, 48 h

1. CN(C)C(=S)/N=c1\ss/c(=N\C(=S)N(C)C)n1-c1cccc(Cl)c1: > 100 µM
2. O=S(=O)(Nc1nc2ccccc2nc1N1CCCCCC1)c1ccccc1: 70 µM

Incoming: Return reported TGI. Input compound: O=C1[C@@H]2[C@@H](CN3CN(c4ccccc4)N=C(c4ccccc4)[C@@]23c2ccccc2)C(=O)N1c1ccccc1
Outgoing: 30.2 µM

Incoming: Return reported TGI. Input compound: CN(C)CCC(=O)Nc1ccc(-n2cc(-c3cccc(NC(=S)Nc4cccc(-c5cn(-c6ccc(NC(=O)CCN(C)C)cc6)nn5)c4)c3)nn2)cc1
Outgoing: 49 µM

Incoming: Return reported TGI. Input compound: Cc1cc2c(c(C(=O)O)c1C)-c1cccc(Cl)c1C2=O
Outgoing: > 100 µM

Incoming: Return reported TGI. Input compound: CC(=O)Nc1ccc(C2CC(c3ccc([N+](=O)[O-])cc3)=Nc3ccccc3S2)cc1 (centres undefined)
Outgoing: 35 µM

Incoming: Return reported TGI. Input compound: CC(=O)[CH-]C(C)=O.CC(=O)[CH-]C(C)=O.[O-]c1ccccc1.[O-]c1ccccc1.[Ti+4]
Outgoing: > 100 µM

----------
Test system: RXF 393 renal
measurement protocol: NCI tumour cell line growth inhibition, 48 h
outcome measure: TGI

1) CCOC(=O)Nc1ccc2nc(-c3cscn3)[nH]c2c1: 13.6 µM
2) c1ccc2c(c1)[nH]c1c2nc2ccccn21: > 100 µM
3) CC1=C(C)C(=O)C(C2=CC(=O)c3ccccc3C2=O)=C(C2=CC(=O)c3ccccc3C2=O)C1=O: 22.4 µM
4) CC(C)(C)C(=O)Nc1c(C=O)ccc2[nH]cnc12: > 100 µM
5) N#Cc1ccccc1NC(=O)C(=O)C(C(=O)c1ccccc1F)C1OC(=O)c2ccccc21 (stereo not given): 87.6 µM
6) O=C1NC(=NCCc2ccc(Cl)cc2)S/C1=C\c1ccc2ncccc2c1: > 25 µM

Incoming: Return reported TGI. Input molecule: CCOC(=O)c1cc(-c2ccc(OC)cc2)c([N+](=O)[O-])[nH]1
Outgoing: > 10 µM

Incoming: Return reported TGI. Input molecule: CCc1nc(N)c2nc(-c3cccs3)oc2n1
Outgoing: > 100 µM

Incoming: Return reported TGI. Input molecule: O=c1[nH]ccc(CNC23CC4CC(CC(C4)C2)C3)c1O
Outgoing: > 100 µM

Incoming: Return reported TGI. Input molecule: COc1cccc2c1C(=O)c1c(O)c3c(c(O)c1C2=O)C[C@@](O)(C(C)=O)CC3OC1CC(OC2CC(N)C(O)C(C)O2)C(O)C(C)O1 (stereo not given in full)
Outgoing: > 100 µM

----------
System: OVCAR-5 ovarian
measurement protocol: NCI tumour cell line growth inhibition, 48 h
Entries and their TGI values follow.

1) COC(=O)C1=C(CCCCO[Si](C)(C)C(C)(C)C)NC(=O)N2[C@H](CCOCc3ccccc3)CC[C@@H]12: > 100 µM
2) Cc1cccc(C)c1NC(=O)C(=O)Cc1nc2ccccc2s1: > 100 µM
3) CCOC(=O)c1c(-c2ccc(OC)cc2)ccn1C: > 10 µM
4) CC(Nc1ccc(Cl)cc1)c1ccncc1 (stereo unspecified): > 100 µM
5) [N-]=[N+]=CC(=O)CCC(N)C(=O)O (stereo unspecified): > 186 µM

Incoming: Return reported TGI. Input compound: Nc1[nH]c(=O)nc2c1ncn2C1OC(CO)C(O)C1O (stereo unspecified)
Outgoing: > 100 µM

----------
System: UO-31 renal
measurement protocol: NCI tumour cell line growth inhibition, 48 h; in the data active means GI50 below about 0.43 µM; inactive means the rest
Could you please pick one outcome from this set? t (active), f (inactive)

Known results for molecules:
1. CC(C)(C)C[C@H]1N[C@@H](C(=O)NC2CCC(O)CC2)[C@H](c2cccc(Cl)c2F)[C@@]12C(=O)Nc1cc(Cl)ccc12 (stereo partly drawn): f
2. O=C1C(=O)c2c(nc3ccc(C(F)(F)F)cn23)-c2ccccc21: t
3. CCCC(=O)O[C@]1(C)CC[C@@H]2[C@H]3[C@@H]1[C@@H]1C[C@@](C)(O)[C@H](OC)CC[C@](C)(OC(=O)[C@@H]2C)[C@H]3O1: f
4. C[C@@]1(F)[C@H](O)[C@@H](CO)O[C@H]1n1ccc(=O)[nH]c1=O: f
5. CCCCCCCC(=O)OCC/C=C/C1OC1C1OC(=O)/C=C\C=C\C(=O)N(C(C)=O)C(=O)/C=C(/C)CCC2OC2C1OC(=O)NC(C)=O (stereo not drawn): f

Incoming: Could you check what this test reported for Nc1cc2c3c(cccc3c1)C(=O)N(CCN1CCCC1)C2=O ?
Outgoing: f

Incoming: Could you check what this test reported for COc1cc(/C=N/NC(=O)c2cnn3c2NC(c2ccccc2)C3)ccc1OC1CCCC1 (stereo not drawn) ?
Outgoing: f

Incoming: Could you check what this test reported for COc1cc2c(/C=C3\C(=O)Nc4ccccc43)c[nH]c2cc1C ?
Outgoing: f

----------
Tested on: OVCAR-8 ovarian
measurement protocol: NCI tumour cell line growth inhibition, 48 h
outcome measure: TGI

1) C[n+]1cccc2ccc3cccnc3c21: > 100 µM
2) COc1ccc(-c2ccc(OC)c(OC)c2OC)cc1: > 100 µM
3) COc1ccc(N2C(=O)C3c4[nH]c5c(C)cccc5c4C4CCC(C(C)C)CC4C3C2=O)cc1 (stereo unspecified): 42.9 µM
4) Cc1nc2c(Br)cc(Br)cc2c(=O)n1-c1ccccc1NC1OC(CO)C(O)C(O)C1O (stereo unspecified): > 100 µM
5) O=C(O)CSC(CC(=O)c1ccc(Cl)cc1)c1ccc(Cl)cc1 (stereo unspecified): 57 µM

Now look at this entry.
Incoming: Return reported TGI. Input compound: Cc1cc(=O)[nH]c(NNC(C#N)c2cccc([N+](=O)[O-])c2)n1 (stereo unspecified)
Outgoing: > 100 µM

----------
System: SNB-19 CNS
measurement protocol: NCI tumour cell line growth inhibition, 48 h
outcome measure: log10(TGI) (log10 of the value in µM)
Heads up, the numbers here are log10 of TGI in µM units.

# count of solved cases: 10
1. O=C1CC23CCCCCCCCCCC2(C1)CC(=O)C3 (stereo not given): 1.88
2. COc1ccc2[nH]c(C(=O)N3CCN(C(=O)OCc4ccc5c(Cl)cc(Cl)c(O)c5n4)CC3)cc2c1: 0.46
3. CC(=O)Nc1ccc(C2CC(c3ccc([N+](=O)[O-])cc3)=Nc3ccccc3S2)cc1 (stereo not given): 1.80
4. COc1cc(CCNC2=CC(=O)c3nc[nH]c3C2=O)ccc1O: 1.52
5. COc1cc2c(cc1C)NC(=O)/C2=C/c1ccnc2ccccc12: 1.56
6. CCC1(O)CC(CCN(Cc2ccccc2)C(=O)OCc2ccccc2)C(OCc2ccccc2)C1O (stereo not given): 1.50
7. COP(=O)(OC)OCN(C)CC/C=C(\C)CC/C=C(\C)CCC=C(C)C: 1.41
8. COC1/C=C/C(C)C(O)CC(O)/C=C/C(C)C(C(C)C(OC)C(C)CCC(=O)C(C)C(C/C=C/N(C)C=O)OC)OC(=O)/C=C/C=C(\C)CC(OC)CC2=CC(=O)O[C@@H](C(C)C(OC)C1)[C@H]2O (stereo not given in full): -0.81
9. CC(C)(C)C[C@H]1N[C@@H](C(=O)NC2CCC(O)CC2)[C@H](c2cccc(Cl)c2F)[C@@]12C(=O)Nc1cc(Cl)ccc12 (stereo not given in full): 1.33
10. O=c1c(-c2ccc3c(c2)OCO3)coc2c3c(ccc12)OCO3: 1.65

Incoming: Return reported log10(TGI). Input compound: Cn1c(I)c(C#C[Si](C)(C)C)c(=O)n(C(=O)c2ccccc2)c1=O
Outgoing: 1.50

Incoming: Return reported log10(TGI). Input compound: CSc1nc(Nc2cccc(NC(=O)CCl)c2)c(C#N)c(-c2cccc([N+](=O)[O-])c2)n1
Outgoing: 0.68

Incoming: Return reported log10(TGI). Input compound: COc1cc2c(/C=C3/C(=O)Nc4ccccc43)c(Cl)n(Cc3ccc(Cl)cc3)c2cc1C
Outgoing: 1.20
